Reference source for all entries: PubChem BioAssay (NCI)

System: A549 NSCLC
PROCEDURE DETAILS: NCI tumour cell line growth inhibition, 48 h
ASSAY READOUT: GI50

Below, 4 molecules whose answers are already recorded.
CCOC(=O)/C=C/C(C(=O)/C=C/c1ccc(O)c(OC)c1)=C(O)\C=C\c1ccc(O)c(OC)c1 ... 4.84 µM
COC(=O)[C@]12CC[C@@H](C)[C@H](C)[C@@H]1C1=CC[C@@H]3[C@@]4(C)C=C(O)C(=O)[C@@]5(C)COC(=C54)C[C@@]3(C)[C@]1(C)CC2 ... 8.36 µM
C=CCC(N[C@H](CO)c1ccccc1)c1cn(C(=O)OCC)c2ccccc12 (some centres undefined) ... 13.1 µM
C=C1C(=O)O[C@H]2[C@H]1CC/C(COC(=O)NCCc1c[nH]c3ccc(OC)cc13)=C\CC[C@@]1(C)O[C@@H]21 ... 4.58 µM

Please give GI50 for each item listed below.
1. Cc1c(C)[n+](=O)c(C)c(C)n1[O-]
2. Cc1ccc(SC2=CC(=O)c3nc4ccccc4c4ccnc2c34)cc1
3. Cc1cc(C)c(O)c(CN(C)Cc2cc(Cl)cc(Cl)c2O)c1

Output:
1: > 100 µM; 2: > 79.8 µM; 3: 5.41 µM

Can you give me GI50 for all of these, one by one?
1. O=C(O)c1ccc(N/C=C2\C(=O)c3ccccc3OC2O)cc1O (centres undefined)
2. CO[C@@H]1CC(=O)C2(CC(=O)O[C@@H]2/C=C(\C)CCC=C(C)C)C[C@@H]1O (some centres undefined)

Output:
1. 55.1 µg/mL
2. 1.65 µM

---

Could you please report measured GI50 for the items listed next?
System: 786-0 renal
PROCEDURE DETAILS: NCI tumour cell line growth inhibition, 48 h

Consider the worked cases shown below.
COc1ccccc1C#Cc1ccccc1C#CCCCCCC#Cc1ccccc1C#Cc1ccccc1OC ... > 100 µM
O=C(O)c1ccc(N/C=C2\C(=O)c3ccccc3OC2O)cc1O (centres undefined) ... 28.5 µg/mL
CC(=O)OCC1OC(OC2CC3C(C)(C)C(O)CC[C@]3(C)C3CCC45CC4(CC[C@H]5C(C)CC(O)C4OC4(C)C)[C@]23C)C(O)C(O)C1O (some centres undefined) ... 5.67 µM

Short answer for COc1ccc2nc3cc(Cl)ccc3c(NCCCNCCC(C)O)c2c1 (centres undefined) : GI50 was 0.472 µM

---

Test system: MOLT-4 leukemia
PROCEDURE DETAILS: NCI tumour cell line growth inhibition, 48 h; in the data active = GI50 below about 0.43 µM; inactive = the rest
Respond using exactly one of the listed classes: true (1) (active), false (0) (inactive)

Here's what some known entries look like.
O=C(O)c1cc2cc(OCc3ccccc3)c(OCc3ccccc3)cc2[nH]1 ... false (0)
COc1ccc(C(=O)c2cc3c(OC)c(OC)c(OC)cc3[nH]2)cc1 ... false (0)
N#CCc1ncc(-c2ccc(C(F)(F)F)cc2)c(NC2CCCCCC2)n1 ... false (0)
COc1cc(-c2nc3sc4c(c3c(=O)[nH]2)CCCCCC4)cc(OC)c1OC ... false (0)
O=C(O)c1ccc(N/C=C2\C(=O)c3ccccc3OC2O)cc1O (configuration not stated) ... false (0)
CSc1ccc2c3c(n(C[C@H](O)CO)c(=O)c2c1)-c1ccccc1C3=O ... true (1)

Input: Any idea what this test logged for O=c1[nH]cnc2[nH]ncc12 ?
Output: false (0)

Input: Entry NS(=O)(=O)c1cccc(N=Cc2c(O)[nH]c3ccccc23)c1 : call = ?
Output: false (0)

Input: Any idea what this test logged for Cc1ccc(-c2cc(C3=CC(=O)C=CC3=O)n(-c3ccc(S(N)(=O)=O)cc3)n2)cc1 ?
Output: false (0)

Input: Please share the test call associated with COc1cc(/C=C2\CN(C)C/C(=C\c3cc(CN4CCCCC4)c(O)c(OC)c3)C2=O)cc(CN2CCCCC2)c1O .
Output: false (0)

Input: Could you please tell me the result logged for O=C(Nc1ccc(Cl)cc1)c1cc(-c2ccc(Cl)cc2)c2sc(=O)[nH]c2n1 in this assay?
Output: false (0)

Input: Could you please tell me the result logged for CCN(CCCl)CCCNc1c2ccccc2nc2ccc(OC)cc12 in this assay?
Output: false (0)

Input: // return assay outcome for c1cn2cc(-c3ccc4cn[nH]c4c3)nc(Nc3ccc(N4CCOCC4)cc3)c2n1
Output: false (0)

Input: For COc1ccc2c(c1)C(c1ccccc1Cl)=Nc1c(n[nH]c1C)N2 , what call appears in the results of this test?
Output: false (0)
